src = patent US20140005163A1

Parameter: log10 IC50. Scope: all listed entries.
- system-tested: PI3K alpha (Homo sapiens, UniProt P42336)
- Construct: p85(iSH2) fusion partner (see partner chain) (N); His tag (C); Tn5 (Trichoplusia ni) or TiniPro insect cells
- Sequence (P42336 with tags, fused parts or gaps limits assumed): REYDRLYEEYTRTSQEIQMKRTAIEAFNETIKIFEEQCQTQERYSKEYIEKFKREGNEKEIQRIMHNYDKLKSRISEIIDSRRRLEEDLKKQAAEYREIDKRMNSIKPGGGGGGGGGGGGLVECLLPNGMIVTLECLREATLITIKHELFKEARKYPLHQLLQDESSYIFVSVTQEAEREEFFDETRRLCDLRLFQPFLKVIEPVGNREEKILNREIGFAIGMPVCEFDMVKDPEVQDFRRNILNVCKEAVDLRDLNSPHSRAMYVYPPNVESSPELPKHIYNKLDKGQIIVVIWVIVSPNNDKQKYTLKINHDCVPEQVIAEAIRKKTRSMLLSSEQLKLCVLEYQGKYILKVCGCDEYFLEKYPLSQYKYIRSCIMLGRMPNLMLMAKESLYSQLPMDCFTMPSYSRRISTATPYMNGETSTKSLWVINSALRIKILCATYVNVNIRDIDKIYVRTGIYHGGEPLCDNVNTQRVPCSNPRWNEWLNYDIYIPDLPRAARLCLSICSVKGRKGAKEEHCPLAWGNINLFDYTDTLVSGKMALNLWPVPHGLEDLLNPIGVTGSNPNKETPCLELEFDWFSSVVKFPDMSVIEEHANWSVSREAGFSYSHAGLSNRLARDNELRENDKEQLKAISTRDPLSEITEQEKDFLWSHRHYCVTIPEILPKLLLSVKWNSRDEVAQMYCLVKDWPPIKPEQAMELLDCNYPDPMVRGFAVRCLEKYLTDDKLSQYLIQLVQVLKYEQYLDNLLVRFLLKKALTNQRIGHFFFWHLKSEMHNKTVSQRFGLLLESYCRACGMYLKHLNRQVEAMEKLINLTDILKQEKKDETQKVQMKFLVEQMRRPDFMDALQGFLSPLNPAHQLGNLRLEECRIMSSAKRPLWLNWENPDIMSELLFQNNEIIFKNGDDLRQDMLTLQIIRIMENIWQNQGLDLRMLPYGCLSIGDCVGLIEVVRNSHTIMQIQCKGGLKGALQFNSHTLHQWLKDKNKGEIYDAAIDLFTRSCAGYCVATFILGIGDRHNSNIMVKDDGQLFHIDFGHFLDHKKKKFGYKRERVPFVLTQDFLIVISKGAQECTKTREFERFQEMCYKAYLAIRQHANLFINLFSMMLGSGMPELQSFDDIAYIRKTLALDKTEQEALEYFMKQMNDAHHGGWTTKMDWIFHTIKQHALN
- method-summary: PI3K alpha kinase assay (Kinase-Glo luminescence)
reported-property: log10 IC50 (log10 of the value in nM)

| compound-structure-string | system-tested | assay-value |
| --- | --- | --- |
| CNc1ncc(-c2ccc3ncc4c(c3c2)n(-c2cn(C)nc2Cl)c(=O)n4C)cc1C | PI3K alpha (Homo sapiens, UniProt P42336) | 1.20 |
| Cc1ncc(-c2ccc3ncc4c(c3c2)n(-c2cn(C)nc2C)c(=O)n4C)cc1N(C)C | PI3K alpha (Homo sapiens, UniProt P42336) | 0.70 |
| CCOc1cc(-c2ccc3ncc4c(c3c2)n(-c2cn(C)nc2C)c(=O)n4C)ccc1OC | PI3K alpha (Homo sapiens, UniProt P42336) | 1.11 |
| COc1ccc(-c2ccc3ncc4c(c3c2)n(-c2cn(C(C)C)nc2C)c(=O)n4C)cc1OC | PI3K alpha (Homo sapiens, UniProt P42336) | 1.00 |
| CCOCc1ncc(-c2ccc3ncc4c(c3c2)n(-c2cn(C)nc2C)c(=O)n4C)cc1OC | PI3K alpha (Homo sapiens, UniProt P42336) | 2.24 |
| COc1cc(-c2ccc3ncc4c(c3c2)n(-c2cn(C)nc2Cl)c(=O)n4C)cnc1CO | PI3K alpha (Homo sapiens, UniProt P42336) | 0.60 |
| CCNc1ncc(-c2ccc3ncc4c(c3c2)n(-c2cn(C)nc2C)c(=O)n4C)cc1C(F)(F)F | PI3K alpha (Homo sapiens, UniProt P42336) | 1.43 |
| Cc1cc(-n2c(=O)n(C)c3cnc4ccc(-c5ccc(C(F)(F)F)nc5)cc4c32)n(C)n1 | PI3K alpha (Homo sapiens, UniProt P42336) | 1.98 |
| Cc1nn(C)cc1-n1c(=O)n(C)c2cnc3ccc(-c4cnc(N)c(F)c4)cc3c21 | PI3K alpha (Homo sapiens, UniProt P42336) | 1.26 |
| CC(C)Oc1cncc(-c2ccc3ncc4c(c3c2)n(-c2cn(C)nc2Cl)c(=O)n4C)c1 | PI3K alpha (Homo sapiens, UniProt P42336) | 0.78 |
| COc1cc(-c2ccc3ncc4c(c3c2)n(-c2cn(CCO)nc2C)c(=O)n4C)cnc1C | PI3K alpha (Homo sapiens, UniProt P42336) | 0.78 |
| Cc1nn(CC(=O)N(C)C)c(C)c1-n1c(=O)n(C)c2cnc3ccc(-c4cnc(N)c(C(F)(F)F)c4)cc3c21 | PI3K alpha (Homo sapiens, UniProt P42336) | 1.11 |
| Cc1nn(C)cc1-n1c(=O)n(C)c2cnc3ccc(-c4ccc(N)nc4)cc3c21 | PI3K alpha (Homo sapiens, UniProt P42336) | 0.90 |
| CNc1ncc(-c2ccc3ncc4c(c3c2)n(-c2cn(C(C)C)nc2C)c(=O)n4C)cc1COC | PI3K alpha (Homo sapiens, UniProt P42336) | 1.30 |
| CCN(CC)C(=O)Cn1cc(-n2c(=O)n(C)c3cnc4ccc(-c5ccc(C)nc5)cc4c32)c(C)n1 | PI3K alpha (Homo sapiens, UniProt P42336) | 1.23 |
| CCOc1ccc(-c2ccc3ncc4c(c3c2)n(-c2cn(C)nc2C)c(=O)n4C)cc1OC | PI3K alpha (Homo sapiens, UniProt P42336) | 1.04 |
| COc1ncc(-c2ccc3ncc4c(c3c2)n(-c2cn(C(C)C)nc2C)c(=O)n4C)c(OC)n1 | PI3K alpha (Homo sapiens, UniProt P42336) | 1.18 |
| CCOCc1cc(-c2ccc3ncc4c(c3c2)n(-c2cn(CC)nc2C)c(=O)n4C)cnc1N | PI3K alpha (Homo sapiens, UniProt P42336) | 1.18 |
